molecular target: KRAS G12D Ba/F3 cells (Homo sapiens, UniProt P01116, G12D, cells depend on it); assay: Ba/F3 proliferation assay, KRAS G12D; format: cell-based; conditions: 72 h, AlamarBlue, read-out: KRAS G12D Ba/F3 IC50
Sequence (P01116 whole entry G12D): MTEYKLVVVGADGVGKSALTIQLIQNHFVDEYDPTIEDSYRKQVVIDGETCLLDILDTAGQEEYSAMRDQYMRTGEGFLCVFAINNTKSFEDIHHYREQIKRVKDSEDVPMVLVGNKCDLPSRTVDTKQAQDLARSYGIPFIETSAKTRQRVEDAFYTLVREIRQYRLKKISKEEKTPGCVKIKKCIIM
molecules and their reported GI50
Please format your answer as a value with the unit trailing.

[
  {
    "compound.structure.string": "C[C@H]1CNCCN1c1nccc(-c2noc([C@@]3(C)CCCc4sc(N)c(C#N)c43)n2)n1",
    "GI50": "823 nM"
  }
]

Query the reported GI50 for KRAS G12D Ba/F3 cells (Homo sapiens, UniProt P01116, G12D, cells depend on it); item: CC(C)N1CCCN(c2nccc(-c3cc([C@@]4(C)CCCc5sc(N)c(C#N)c54)on3)n2)[C@@H](C)C1
79 nM

Query the reported GI50 for KRAS G12D Ba/F3 cells (Homo sapiens, UniProt P01116, G12D, cells depend on it); item: C[C@H](Oc1ccnc(-c2cc([C@@]3(C)CCCc4sc(N)c(C#N)c43)on2)n1)[C@@H]1CCCN1C
108 nM

Query the reported GI50 for KRAS G12D Ba/F3 cells (Homo sapiens, UniProt P01116, G12D, cells depend on it); item: C[C@H]1CN(C)CCN1c1nccc(-c2cc([C@@]3(C)CCCc4sc(N)c(C#N)c43)on2)n1
525 nM

Query the reported GI50 for KRAS G12D Ba/F3 cells (Homo sapiens, UniProt P01116, G12D, cells depend on it); item: C[C@H](Oc1ccnc(-c2cc([C@@]3(C)CCCc4sc(N)c(C#N)c43)no2)n1)[C@@H]1CCCN1C
961 nM

Query the reported GI50 for KRAS G12D Ba/F3 cells (Homo sapiens, UniProt P01116, G12D, cells depend on it); item: COCCCN1CCCN(c2nccc(-c3noc([C@@]4(C)CCCc5sc(N)c(C#N)c54)n3)n2)[C@@H](C)C1
256 nM

Query the reported GI50 for KRAS G12D Ba/F3 cells (Homo sapiens, UniProt P01116, G12D, cells depend on it); item: C[C@H]1CN(CC2CC2)CCCN1c1nccc(-c2noc([C@@]3(C)CCCc4sc(N)c(C#N)c43)n2)n1
214 nM

Query the reported GI50 for KRAS G12D Ba/F3 cells (Homo sapiens, UniProt P01116, G12D, cells depend on it); item: C[C@H]1CN(C)CCCN1c1nccc(-c2noc([C@@]3(C)CCCc4sc(N)c(C#N)c43)n2)n1
293 nM

Query the reported GI50 for KRAS G12D Ba/F3 cells (Homo sapiens, UniProt P01116, G12D, cells depend on it); item: CC(C)N1CCCN(c2nccc(-c3noc([C@@]4(C)CCCc5sc(N)c(C#N)c54)n3)n2)[C@@H](C)C1
51 nM

Query the reported GI50 for KRAS G12D Ba/F3 cells (Homo sapiens, UniProt P01116, G12D, cells depend on it); item: C[C@H]1CNCCCN1c1nccc(-c2noc([C@@]3(C)CCCc4sc(N)c(C#N)c43)n2)n1
801 nM

---

molecules and their reported log10 IC50
target: KRAS (G12D) and SOS1 (Homo sapiens, UniProt P01116, G12D); construct: KRAS (G12D) 1-169, N-terminal 6His-tag; 6His (N); Viva Biotech Ltd (SOS1); experiment: KRAS::SOS1 AlphaScreen binding assay, KRAS G12D
Sequence (P01116 1-169 isoform P01116-2 G12D): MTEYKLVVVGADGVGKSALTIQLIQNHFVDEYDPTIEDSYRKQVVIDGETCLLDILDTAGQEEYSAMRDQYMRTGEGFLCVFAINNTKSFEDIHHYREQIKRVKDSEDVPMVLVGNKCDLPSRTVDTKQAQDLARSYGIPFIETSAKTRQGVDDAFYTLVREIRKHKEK
Form field - Quantity: IC50; Unit: nM; Scale: log10

As a guide, the following entries are already answered.
[
  {
    "compound.structure.string": "C[C@H]1CN(C)CCCN1c1nccc(-c2noc([C@@]3(C)CCCc4sc(N)c(C#N)c43)n2)n1",
    "quantitative.readout": 0.85
  },
  {
    "compound.structure.string": "C[C@H](Oc1ccnc(-c2cc([C@@]3(C)CCCc4sc(N)c(C#N)c43)on2)n1)[C@@H]1CCCN1C",
    "quantitative.readout": 0.30
  },
  {
    "compound.structure.string": "C[C@H]1CN(C)CCN1c1cccc(-c2noc([C@@]3(C)CCCc4sc(N)c(C#N)c43)n2)n1",
    "quantitative.readout": 1.41
  },
  {
    "compound.structure.string": "COCCCN1CCCN(c2nccc(-c3noc([C@@]4(C)CCCc5sc(N)c(C#N)c54)n3)n2)[C@@H](C)C1",
    "quantitative.readout": 0.48
  },
  {
    "compound.structure.string": "CC(C)N1CCCN(c2nccc(-c3noc([C@@]4(C)CCCc5sc(N)c(C#N)c54)n3)n2)[C@@H](C)C1",
    "quantitative.readout": 0.70
  },
  {
    "compound.structure.string": "C[C@H](Oc1ccnc(-c2cc([C@@]3(C)CCCc4sc(N)c(C#N)c43)no2)n1)[C@@H]1CCCN1C",
    "quantitative.readout": 0.95
  },
  {
    "compound.structure.string": "C[C@H](Oc1cccc(-c2noc([C@@]3(C)CCCc4sc(N)c(C#N)c43)n2)n1)[C@@H]1CCCN1C",
    "quantitative.readout": 0.85
  },
  {
    "compound.structure.string": "C[C@H](Oc1nccc(-c2noc([C@@]3(C)CCCc4sc(N)c(C#N)c43)n2)n1)[C@@H]1CCCN1C",
    "quantitative.readout": 0.70
  }
]

What value of measured log10 IC50 is listed for C[C@H]1CN(C)CCN1c1nccc(-c2noc([C@@]3(C)CCCc4sc(N)c(C#N)c43)n2)n1 ?
1.20

What value of measured log10 IC50 is listed for CC(C)N1CCCN(c2nccc(-c3cc([C@@]4(C)CCCc5sc(N)c(C#N)c54)on3)n2)[C@@H](C)C1 ?
0.30

What value of measured log10 IC50 is listed for C[C@H]1CNCCN1c1nccc(-c2noc([C@@]3(C)CCCc4sc(N)c(C#N)c43)n2)n1 ?
1.18

What value of measured log10 IC50 is listed for C[C@H]1CN(C)CCN1c1nccc(-c2cc([C@@]3(C)CCCc4sc(N)c(C#N)c43)on2)n1 ?
0.90

What value of measured log10 IC50 is listed for C[C@H]1CNCCCN1c1nccc(-c2noc([C@@]3(C)CCCc4sc(N)c(C#N)c43)n2)n1 ?
1.08

What value of measured log10 IC50 is listed for C[C@H]1CN(CC2CC2)CCCN1c1nccc(-c2noc([C@@]3(C)CCCc4sc(N)c(C#N)c43)n2)n1 ?
0.48
